experiment: soluble on expression in E. coli; label from the status in PepcDB or PDB records
recorded-metric: soluble on expression in E. coli

Take a look at these entries with their results.
# macromolecule-sequence, soluble on expression in E. coli
data = [
    ("MEIIKISPRGYCYGVIDAMVIAKNASLDPNLPRPIHILGMIVHNKHVTDAFESIGIYTVDGANREEILDKITTGTVIFTAHGVSPSVKAKAVAKGLTTIDATCPDVLHTYNLILEKQAAGYEIIYIGKKGHPEPEGAYGTAPDVVHLVETKADIDALSLLSDKIFVTNQTTMSKWDVADLMHYIKGKFPKAIQHQEICMATQVRQEAVALQAKDADLTIVVGDPRSNNTARLAQVSIEKAGTKAYRIADITELDIEWIKDAKKVAVTAGASTPTQLVREVLLFLEQFDAADKTTWKREHNQDFERILPKTKNKYMAEKRSQRLAHLKNGGSLEHHHHHH", "not soluble"),
    ("TSLKQNQLNLSTLLVNPEGPTLTQLNSVQSSERPLFLVHPIEGSTTVFHSLAAKLSVPTYGLQCTQAAPLDSIPNLAAYYIDCIKQVQPEGPYRIAGYSFGACVAFEMCSQLQAQQGPAPTHNNLFLFDGSHTYVLAYTQSYRAKMTPGCEAEAEAEALCFFIKQFLDVEHSKVLEALLPLKSLEDRVAASVDLITKSHHSLDRRELSFAAVSFYHKLRAADQYKPKAKYHGNVTLLRAKTGGTYGEDLGADYNLSQVCDGKVSVHIIEGDHRTLLEGSGLESIINIIHSS", "soluble"),
    ("MLRVLIVDDEMLARDELAYLLKRTNDEMEINEAENIESAFDQMMDQKPDLLFLDVDLSGENGFDIAKRLKKMKHPPAIVFATAYDQYALKAFEVDALDYLTKPFDEERIQQTLKKYKKVNRDIVETEQNSHAGQHKLALSVGESIVIVDTKDIIYAGTEDGHVNVKTFDHSYTVSDTLVVIEKKLPDSDFIRVHRSFVVNTEYIKEIQPWFNSTYNLIMKDGSKIPVSRTYAKELKKLLHI", "not soluble"),
    ("GPLGSAQTLQMEIPNFGNSILECLNEQRLQGLYCDVSVVVKGHAFKAHRAVLAASSSYFRDLFNNSRSAVVELPAAVQPQSFQQILSFCYTGRLSMNVGDQDLLMYTAGFLQIQEIMEKGTEFFLKVSS", "soluble"),
    ("MSLIKLIATDMDGTLLNAAHEISQPNIDAIKYAQEQGITVVIATGRAFYEAQAPVADTDLTVPYICLNGAEVRDETFNVMSTSHLNKSLVHKITNVLKDAGIYYQVYTSRAIYTEDPQRDLDIYIDIAERAGQHANVERIKNGIQRRIDNGTLKVVDNYDAIENIPGELIMKILAFDGNLEKIDKASKILAESPNLAISSSSRGNIEITHSDAQKGIALETIAERLGIEMKDVMAIGDNLNDLSMLEKVGYPVAMENGAEEVKKIAKYVTDTNENSGVGKAIMKLLREQEGHHHHHH", "soluble"),
]

Now for a further sequence.
The sequence listed as MGSDKIHHHHHHMNITNNRQYSWVGSREMCLDEISIKQYGEIVIGKYGGNISAGANKNEDGALVWSNGDWEFAAILDGHNSAESVDLVVNTIQKEYENIKEMMNESIDTVFRSIENHILTIFQSSSFKEKCQRIKGETACLLCVRKENYIWWLSIGDCLVYVFHDELHKLGQYALNQRHFYEWIGNVNTFDVPVPCYSSGIRELRTGNNRIVMVTDGVLEYGERRYETPLNLYNDMNRNNIKLEESVHHVLEHVHHQFGRDSATIISWDVENKGKATYPSDQPDKK shows soluble on expression in E. coli equal to not soluble

====

test: soluble on expression in E. coli; label from the status in PepcDB or PDB records

# macromolecule-sequence, soluble on expression in E. coli
records = [
    ("MSNAIEINELHWLLAVTQNIDVGIVVLDLNYRVTVWNTFMENRSGVVPYVAIDKTFFELFPEVNRQWLSKKIDNVVTLGTPAFTIWEQRPYLVRFKNYQPITGHEEFMYQNTTLFPLRSTTGAISHVCLVIYDVTDVAANRN", "not soluble"),
    ("MTAPRKTRTEVITTVLNLERTLAQTVLGINDENLRVLDNQIDCDIHVRGTHVELTGPAHEVSRASKIFEELQAIARRGHVISPETVKNVISMINVETPQTVSEILTGDILARRGKVIRPKTLGQKHYVDAIDTNTIVFGLGPAGSGKTYLAMAKAVQALQSKQVSRIILTRPAVEAGEKLGFLPGTLNEKIDPYLRPLHDALRDMVEPEVIPKLMEAGIVEVAPLAYMRGRTLNDAFVILDEAQNTTPAQMKMFLTRLGFGSKMVVTGDITQVDLPGGQKSGLRLVRHILRGVDDVHFSELTSSDVVRHQLVGHIVDAYEDYEEREARELKRKRQETRP", "not soluble"),
    ("MTAAARTPAFYLDLGVPDTVMGRFEMLSVIMILYFRRTKSSGVSGQEIAQEIVDAFFQDIDHSIRELGIGDQGVPKRMKKFAGMFYGRLESYAAALDASDCAALAAALRRNIYPQVDDEAPEMEGLAGWMMETSDALAAQSEETIATGSLTLPLPILEHHHHHH", "not soluble"),
]

====

test: soluble on expression in E. coli; label from the status in PepcDB or PDB records
recorded-metric: soluble on expression in E. coli

# macromolecule-sequence, reported-value
data = [
    ("MSARVRPFLMFQGVQAEAAMNFYLSLFDDAEILQIQRYGAEGPGPEGSVLKALFRLGDQSVHCIDSHVRHAFDFTPAFSFFVDCESNAQIERLAEALSDGGKALMPLGDYGFSQRFAWLADRFGVSWQLNLA", "soluble"),
    ("MGSDKIHHHHHHMRVEDILDQLVMQSRDQDGAKYYISLINDMRIDRSVDPVKSIILEILSLCSDGRIDPWDVDLLKFAEIMNSFFGNSFIDFQFAGKAIADAWRVLRIKSDMSPKEQDRQMNDIGCEEPEDTDNFIPQNQVVIQLVPSVLTPQSRPVVLVDLIDEIRRKMYSSRLQKKKVDVHIEFDSSKLNPDRSEEMIEKTYRAIIESGKQKVFMSEIWGNTRRERAVFFLYSMFLFRDGRISLSQEEPNGDILIETNVI", "not soluble"),
    ("ADLGHQTLGSNDGWGAYSTGTTGGSKASSSNVYTVSNRNQLVSALGKETNTTPKIIYIKGTIDMNVDDNLKPLGLNDYKDPEYDLDKYLKAYDPSTWGKKEPSGTQEEARARSQKNQKARVMVDIPANTTIVGSGTNAKVVGGNFQIKSDNVIIRNIEFQDAYDYFPQWDPTAGSSGNWASQYDNITINGGTHIWIDHCTFNDGSRPDSTSPKYYGRKYQHHDGQTDASNGANYITMSYNYYHDHDASSIFGSSDSKTSDDGKLKITLHHNRYKNIVQRAPRVRFGQVHVYNNYYEGSTSSSSYPFSYAWGIGKSSKIYAQNNVIDVPGLSAAKTISVFSGGTALYDSGTLLNGTQINASAANGLSSSVGWTPSLHGSIDASANVKSNVINQAGAGKLN", "soluble"),
    ("MGSDKIHHHHHHMKSIKAADLHAAVRDMIMDANRVLGKDVYNAFQTCMQQETTDSGKEVLRQLLENADLAAQSGLALCQDTGVAVFFVEMGEEVRMEGGGLKETLNAAMVEAYNKAFLRKSMCHPLTRKNTGDNTPAVIHVELVPGDTLKVRYMAKGGGSENMSRCTMLTPAQGWQGIKDFVVRRMAEAGPNPCPPTIVGVGIGGTFDLAPSLAKGALFRRVDDVHPDPEIAAMEKELLDEINALGIGPMGLGGKTTCLAVKIAMHPCHIASLPLAVNVQCHSSRHKEVVF", "not soluble"),
    ("MSDQQQPPVYKIALGIEYDGSKYYGWQRQNEVRSVQEKLEKALSQVANEPITVFCAGRTDAGVHGTGQVVHFETTAQRKDAAWTLGVNANLPGDIAVRWVKAVPDDFHARFSATARRYRYIIYNHRLRPAVLSKGVTHFYEPLDAERMHRAAQCLLGENDFTSFRAVQCQSRTPWRNVMHINVTRHGPYVVVDIKANAFVHHMVRNIVGSLMEVGAHNQPESWIAELLAAKDRTLAAATAKAEGLYLVAVDYPDRYDLPKPPMGPLFLAD", "soluble"),
]

The sequence listed as MSLTTELVDWTHEQKCRKAVAALEKNGFTAVYCPSGREAFDYILTEAVDARSIGFGGSLSVVDLQVIDRLREMDKELLIHGLPGLSLEERVAIMRRQLTCDLFLTGTNALTLSGWLVNIDATGNRVASMFFGPRTVIVVAGRNKIVDGGVTEAIARVKEWASPPNARRLSYKTPCATTGFCSDCNSPDRICRITTVIDRNPRLTDLRVLVVNEDMGLLEHHHHHH shows soluble on expression in E. coli equal to soluble

The sequence listed as MDILKLSDFIGNTLIVSLTEDRILVGSLVAVDAQMNLLLDHVEERMGSSSRMMGLVSVPRRSVKTIMIDKPVLQELTANKVELMANIV shows soluble on expression in E. coli equal to not soluble
